Biological target: Purified recombinant trypanosome alternative oxidase (ΔMTS-TAO) (Trypanosoma brucei brucei, UniProt Q26710)
Sequence (Q26710 26-329, stated change not applied): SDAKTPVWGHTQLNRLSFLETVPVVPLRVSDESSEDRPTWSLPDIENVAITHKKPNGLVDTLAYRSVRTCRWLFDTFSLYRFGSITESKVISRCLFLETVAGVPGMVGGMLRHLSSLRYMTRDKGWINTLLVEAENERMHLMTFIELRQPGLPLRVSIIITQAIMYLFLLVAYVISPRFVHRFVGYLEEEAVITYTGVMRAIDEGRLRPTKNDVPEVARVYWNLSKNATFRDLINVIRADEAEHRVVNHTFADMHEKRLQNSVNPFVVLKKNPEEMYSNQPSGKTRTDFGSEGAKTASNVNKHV
Experiment: Inhibition of ubiquinol oxidase activity of purified ΔMTS-TAO
Details: read-out: rTAO % inhibition at 40 μM
Threshold check on inhibition at 40 µM: at or above 40% gives Yes, strictly below gives No.

compound=Cc1cc(O)cc(O)c1C(=O)NCCCCCCCCCCCCCCOc1ccc(C#N)cc1 category_label=Yes
compound=Cc1cc(O)cc(O)c1C(=O)NCCCCCCCCCCCCOc1ccc(C(=N)NO)cc1 category_label=Yes
compound=Cc1cc(O)cc(O)c1C(=O)NCCCOc1ccc(C(=N)NO)cc1 category_label=No
compound=Cc1cc(O)cc(O)c1C(=O)NCCCCCCOc1ccc(C#N)cc1 category_label=Yes
compound="C/C(=C\\Cc1c(O)c(Cl)c(C)c(C=O)c1O)CC/C=C(\\C)[C@@H]1CC(=O)C(C)(C)O1 [ascofuranone, reference compound]" category_label=Yes
compound=Cc1cc(O)cc(O)c1C(=O)NCCCOc1ccc(C#N)cc1 category_label=No
compound=Cc1cc(O)cc(O)c1C(=O)NCCCCCCOc1ccc(C(=N)NO)cc1 category_label=No
compound=CC(=O)O.Cc1cc(O)cc(O)c1C(=O)NCCCCCCOc1ccc(C(=N)N)cc1 category_label=No
compound=Cc1cc(O)cc(O)c1C(=O)NCCCCCCCCCCCCCCOc1ccc(C(=N)N)cc1 category_label=No
compound=Cc1cc(O)cc(O)c1C(=O)NCCCCCCCCCCCCCCOc1ccc(C(=N)NO)cc1 category_label=No
compound=Cc1cc(O)cc(O)c1C(=O)NCCCCCCCCCCCCOc1ccc(C#N)cc1 category_label=No

----------
The entries below come with measured CC50 values attached.
Assay: in vitro
Conditions: human
property name: CC50

compound=CC(=O)O.Cc1cc(O)cc(O)c1C(=O)NCCCCCCCCCCCCOc1ccc(C2=NCCN2)cc1 recorded_result="67.2 µM"
compound=Cc1cc(O)cc(O)c1C(=O)NCCCCCCOc1ccc(C#N)cc1 recorded_result="> 200 µM"
compound=Cc1cc(O)c(C(=O)CCCCCCCCCCCCCCCOc2ccc(C#N)cc2)c(O)c1 recorded_result="> 100 µM"
compound=Cc1cc(O)cc(O)c1C(=O)NCCCCCCCCCCCCCCOc1ccc(C(=N)NO)cc1 recorded_result="> 200 µM"
compound="Cc1cc(O)cc(O)c1C(=O)NCCCCCCCCCCCCOc1ccc(N)cc1 [12c]" recorded_result="> 100 µM"
compound=Cc1cc(O)cc(O)c1C(=O)NCCCOc1ccc(C#N)cc1 recorded_result="> 200 µM"
compound=CC(=O)O.Cc1cc(O)cc(O)c1C(=O)NCCCCCCOc1ccc(C(=N)N)cc1 recorded_result="> 200 µM"
compound="Cc1cc(O)cc(O)c1C(=O)NCCCCCCCCCCCCOc1ccc([N+](=O)[O-])cc1 [11c]" recorded_result="> 100 µM"
compound=Cc1cc(O)cc(O)c1C(=O)NCCCCCCCCCCCCCCOc1ccc(C(=N)N)cc1 recorded_result="> 200 µM"

----------
Experiment: in vitro
Details: human
The entries below come with measured CC50 values attached.
property name: CC50 (µM)

compound="Cc1cc(O)cc(O)c1C(=O)NCCCCCCCCCCCCOc1ccc(C(=N)NO)cc1 [8c]" property_name=CC50 value_qualifier== recorded_result=109
compound="Cc1cc(O)cc(O)c1C(=O)NCCCOc1ccc(C(=N)NO)cc1 [8a]" property_name=CC50 value_qualifier=> recorded_result=200
compound="CC(=O)O.Cc1cc(O)cc(O)c1C(=O)NCCCOc1ccc(C(=N)N)cc1 [1a]" property_name=CC50 value_qualifier=> recorded_result=200
compound="Cc1cc(O)cc(O)c1C(=O)NCCCCCCCCCCCCOc1ccc(C#N)cc1 [7c]" property_name=CC50 value_qualifier== recorded_result=57.1
compound="Cc1cc(O)cc(O)c1C(=O)NCCCCCCCCCCCCOc1ccc(N=C2N(C(=O)OC(C)(C)C)CCN2C(=O)OC(C)(C)C)cc1 [14c]" property_name=CC50 value_qualifier=> recorded_result=100
